experiment notes: Ratio of drug level in brain to plasma of Sprague-Dawley rat at 10 mg/kg, po after 2 hrs
Type: ADME, organism-based
Design: dose 10 mg/kg, route oral
recorded endpoint: Kp at 2 h

1. CCO/N=C(/c1ccc(F)c(F)c1)c1ccc(CN2CCC3(CC2)OCc2cn(C)c(=O)cc23)cn1 | 0.49

* * *

experiment notes: AUC (0 to infinity) in diet-induced obese C57BL/6J mouse at 30 mg/kg, po
Assay type: ADME, organism-based
Design: time infinity, dose 30 mg/kg, route oral
test context: plasma
recorded endpoint: AUC(0-inf) (µM·h)

1. CCO/N=C(/c1ccc(F)c(F)c1)c1ccc(CN2CCC3(CC2)OCc2cn(C)c(=O)cc23)cn1 | 90.7
